tested on: Vero E6 infected with SARS-CoV-2; assay: inhibition of SARS-CoV-2 cytopathic effect; higher = more antiviral protection, active = above 15; conditions: 100 nM; 48 h
inhibition of SARS-CoV-2 cytopathic effect listing for selected compounds.
Your answer should be a plain number; it is taken to be in %.

compound	measured-value
COc1ncc(-c2ccc3c(Nc4cc(Oc5cc(F)cc(F)c5)cc(C(=O)O)c4)c(S(=O)(=O)NC4CC4)cnc3c2)c(OC)n1	0.69
CCCn1c(=O)c2nc(C34CC5CC(CC3C5)C4)[nH]c2n(CCC)c1=O	2.44
Cn1cnnc1Sc1c([N+](=O)[O-])ncn1C	2.13
CCN(c1ccccc1)c1cc(=NC)n(C)c(C)n1	-5.42
CC(=O)N[C@@H](Cc1ccc(O)cc1)C(=O)O	0.23

Kindly note: Vero E6 infected with SARS-CoV-2, Cc1ccc(Cl)c(OC[C@H](O)CNC(C)C)c1 , inhibition of SARS-CoV-2 cytopathic effect value reported: -0.68

Given the compound CN1CCN(c2c(F)cc3c(=O)c(C(=O)O)cn4c3c2SCC4)CC1 and test system Vero E6 infected with SARS-CoV-2, the measured inhibition of SARS-CoV-2 cytopathic effect is 0.94

###

test system: Vero E6 infected with SARS-CoV-2; assay: inhibition of SARS-CoV-2 cytopathic effect; higher = more antiviral protection, active = above 15; details: 1 nM; 48 h
property: inhibition of SARS-CoV-2 cytopathic effect (%)
Value expressed in %; do not type the unit.

Example entries and their recorded answers appear below.
compound	assay-system	measured-value
c1cc2c(cc1C1CCCCC1)c1c3n2CCNC3CCC1 (configuration not stated) [tetrindole]	Vero E6 infected with SARS-CoV-2	1.68
CCN1C[C@]2(OC(=O)c3ccccc3NC(C)=O)CC[C@H](OC)[C@@]34[C@@H]2C[C@@H]([C@@H]13)[C@@]1(O)C[C@H](OC)[C@H]2C[C@@H]4[C@]1(O)[C@H]2OC [lappaconite]	Vero E6 infected with SARS-CoV-2	6.58
O=C(N[C@@H]1Cc2ccccc2N(C[C@@H](O)CO)C1=O)c1cc2cc(Cl)sc2[nH]1	Vero E6 infected with SARS-CoV-2	-0.59
Nc1ccn([C@@H]2CS[C@H](CO)O2)c(=O)n1 [lamivudine]	Vero E6 infected with SARS-CoV-2	-0.38

Just so you know, measured inhibition of SARS-CoV-2 cytopathic effect for C=CCc1ccc(O)c(-c2ccc(O)c(CC=C)c2)c1 [honokiol] came out at 0.73

According to the records, this compound CC[C@H]1OC(=O)[C@@](C)(F)C(=O)[C@H](C)[C@@H](O[C@@H]2O[C@H](C)C[C@H](N(C)C)[C@H]2O)[C@](C)(OC)C[C@@H](C)C(=O)[C@H](C)[C@H]2N(CCCCn3cc(-c4cccc(N)c4)nn3)C(=O)O[C@]12C [solithromycin] displays inhibition of SARS-CoV-2 cytopathic effect of 0.98

The reported value for Cn1c(NC[C@@H](N)Cc2ccccc2)nc(-c2ccncc2)c(-c2ccc3ccccc3c2)c1=O in terms of inhibition of SARS-CoV-2 cytopathic effect is -0.22

###

system: Vero E6 infected with SARS-CoV-2; assay: morphology score (similarity to uninfected cells); higher = more like uninfected cells; details: 24 h
Overview of reported morphology score across a group of compounds:
Could you keep your reply to the number by itself?

compound	measured-value
[Cl][Ti][Cl].c1cc[cH-]c1.c1cc[cH-]c1 [titanocene-dichloride] (10 µM)	0.163
CCCN1CCCC[C@H]1C(=O)Nc1c(C)cccc1C [ropivacaine] (10 µM)	0.0192
Clc1ccc(C(Cn2ccnc2)OCc2ccc(Sc3ccccc3)cc2)c(Cl)c1 (stereo not given) [fenticonazole] (10 µM)	-0.0119
N=C(N)NS(=O)(=O)c1ccc(N)cc1 [sulfaguanidine] (10 µM)	0.00117
CC(C)c1ccc(C(=O)N=C(N)N)cc1S(C)(=O)=O [cariporide] (10 µM)	0.169
CC(C)(C)c1ccc(/C=C/C(=O)Nc2ccc3c(c2)OCCO3)cc1 (10 µM)	-0.068
COC(=O)N1CC[C@@H]2[C@H]1CCC[C@@]2(O)C#Cc1cccc(C)c1 [mavoglurant] (10 µM)	-0.125
CC(C)C[C@H](NC(=O)[C@@H](COC(C)(C)C)NC(=O)[C@H](Cc1ccc(O)cc1)NC(=O)[C@H](CO)NC(=O)[C@H](Cc1c[nH]c2ccccc12)NC(=O)[C@H](Cc1cnc[nH]1)NC(=O)[C@@H]1CCC(=O)N1)C(=O)N[C@@H](CCCNC(=N)N)C(=O)N1CCC[C@H]1C(=O)NNC(N)=O [goserelin-acetate] (10 µM)	0.0827
CC(C)=CCc1c(O)cc(O)c2c(=O)c(O)c(-c3ccc(C(F)(F)F)cc3)oc12 (0.833333 µM)	0.14
Cc1cc(Oc2ccc3nc(COc4ccc(CC5SC(=O)NC5=O)cc4)n(C)c3c2)cc(C)c1N (stereo not given) [efatutazone] (10 µM)	0.36

The reported Vero E6 infected with SARS-CoV-2 morphology score of COc1cccc(CN(C(=O)CC(C)(C)C)[C@H]2C[C@@H](C(=O)N3CCNCC3)N(Cc3ccc4c(c3)OCO4)C2)c1 (10 µM) is 0.0543

Item CCCCN(CCCC)CCC(O)c1cc2c(Cl)cc(Cl)cc2c2cc(C(F)(F)F)ccc12 (stereo not given) [halofantrine] (10 µM) was tested on Vero E6 infected with SARS-CoV-2; the reported morphology score is 0.406

Item CC(=O)Nc1c(I)c(C(=O)O)c(I)c(N(C)C(C)=O)c1I [metrizoic-acid] (10 µM) ; assay system Vero E6 infected with SARS-CoV-2; morphology score reported as 0.0802

The reported Vero E6 infected with SARS-CoV-2 morphology score of NC(N)=Nc1nc(CSCC/C(N)=N/S(N)(=O)=O)cs1 [famotidine] (10 µM) is -0.0119

Observed morphology score, Vero E6 infected with SARS-CoV-2, CO/N=C(\C(=O)N[C@@H]1C(=O)N2C(C(=O)O)=C(CSC(=O)c3ccco3)CS[C@H]12)c1csc(N)n1 (10 µM) : 0.156

###

tested on: Vero E6 infected with SARS-CoV-2; assay: inhibition of SARS-CoV-2 cytopathic effect; higher = more antiviral protection, active = above 15; conditions: 10000 nM; 48 h
// values below are reported inhibition of SARS-CoV-2 cytopathic effect

Consider the reported inhibition of SARS-CoV-2 cytopathic effect for these compounds:
compound	assay-system	measured-value
COc1cc(C[C@@H](CO)[C@H](CO)Cc2ccc(O)c(OC)c2)ccc1O [secoisolariciresinol-(-)]	Vero E6 infected with SARS-CoV-2	-4.27% (inactive)
O=C(O)c1ccc(Nc2ncc3c(n2)-c2ccc(Cl)cc2C(c2c(F)cccc2F)=NC3)cc1	Vero E6 infected with SARS-CoV-2	-1.05% (inactive)
BrC1C(Br)C(Br)C(Br)C(Br)C1Br (configuration not stated)	Vero E6 infected with SARS-CoV-2	9.07% (inactive)
C[C@H](N/C(=N/C#N)Nc1cccc2ncccc12)c1ccccc1	Vero E6 infected with SARS-CoV-2	1.97% (inactive)
NC[C@@H]1O[C@H](O[C@@H]2[C@@H](CO)OC(O[C@@H]3[C@@H](O)[C@H](N)C[C@H](N)[C@H]3OC3O[C@H](CN)[C@@H](O)[C@H](O)[C@H]3N)[C@@H]2O)[C@H](N)[C@@H](O)[C@@H]1O (some centres not stated)	Vero E6 infected with SARS-CoV-2	-0.07% (inactive)
COc1ccc(Cl)cc1[C@]1(F)C(=O)Nc2cc(C(F)(F)F)ccc21	Vero E6 infected with SARS-CoV-2	-0.62% (inactive)

Record CCc1ccccc1OC[C@@H](O)CN[C@H]1CCCc2ccccc21 . Reported inhibition of SARS-CoV-2 cytopathic effect: -4.25% (inactive)

The measured inhibition of SARS-CoV-2 cytopathic effect associated with Nc1nc(NC2CC2)cc(-c2cccc(Cl)c2Cl)n1 reads -1.5% (inactive)

###

Recorded inhibition of SARS-CoV-2 cytopathic effect for the following compounds
tested on: Vero E6 infected with SARS-CoV-2; test: inhibition of SARS-CoV-2 cytopathic effect; higher = more antiviral protection, active = above 15; conditions: 1 nM; 48 h
Give just the numeric value; % need not be written.

The following compounds have reported results that may help.
compound	assay-system	measured-value
COc1cccc(OC)c1-c1cc(C(=O)N[C@@H](CC(C)C)C(=O)O)nn1-c1ccnc2cc(Cl)ccc12	Vero E6 infected with SARS-CoV-2	2.48
O=c1oc2ccccc2c(O)c1Cc1c(O)c2ccccc2oc1=O	Vero E6 infected with SARS-CoV-2	0.87
Cc1c(NC(=O)OC[C@@H]2COCCN2)cn2ncnc(Nc3ccc4c(cnn4Cc4cccc(F)c4)c3)c12	Vero E6 infected with SARS-CoV-2	0.31
COc1ccc(CC2NCCc3cc(OC)c(OC)cc32)cc1OC (stereo not given) [tetrahydropapaverine]	Vero E6 infected with SARS-CoV-2	1.62

// recorded inhibition of SARS-CoV-2 cytopathic effect for CCOc1cc(N2CCC(O)CC2)ccc1Nc1ncc2c(n1)N(C)c1ccccc1C(=O)N2C : 1.68
